meta.source: patent US8906925B2

test.system: human recombinant serotonin (5-Hydroxytryptamine) 5-HT6 receptor (Homo sapiens, UniProt P50406)
Construct: expressed in transfected cells; host or cells: human HeLa cells
Sequence (P50406 whole entry): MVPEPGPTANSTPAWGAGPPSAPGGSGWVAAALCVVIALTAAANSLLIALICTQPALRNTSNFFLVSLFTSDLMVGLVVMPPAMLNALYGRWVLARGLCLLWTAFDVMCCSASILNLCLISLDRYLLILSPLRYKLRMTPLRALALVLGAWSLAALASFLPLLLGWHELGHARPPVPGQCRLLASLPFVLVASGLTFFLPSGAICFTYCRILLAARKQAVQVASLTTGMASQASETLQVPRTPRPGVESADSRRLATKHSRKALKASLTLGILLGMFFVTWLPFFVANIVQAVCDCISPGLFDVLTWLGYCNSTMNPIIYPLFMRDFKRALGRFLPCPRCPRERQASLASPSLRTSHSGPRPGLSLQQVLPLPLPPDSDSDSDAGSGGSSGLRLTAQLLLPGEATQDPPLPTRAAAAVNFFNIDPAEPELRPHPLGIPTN
assay.info: Serotonin 5-HT6 radioligand binding ([3H]LSD)
measurement.conditions: compound at 1 μM; read-out: Inhibition of ligand binding, Serotonin 5-HT6 (percent inhibition of specific binding)
Experimental: Compounds of the invention were incubated with 1.5 nM [3H]Lysergic acid diethylamide (LSD) for 120 min. at 37° C. […] Receptor proteins were filtered and washed, the filters were then counted to determine [3H]LSD specifically bound. Compounds were screened at 1 μM or lower, using 1% DMSO as vehicle. Biochemical assay results are presented as the percent inhibition of specific binding in Table 10.
I'd be grateful if you could share measured inhibition at 1 µM for these entries.
One number for each entry, in %.

Some solved cases for reference:
Enquiry: Report inhibition at 1 µM, nothing else, for this compound: Cc1ccc2c(c1)c1c(n2C#Cc2ccc(Cl)cc2)CCN(C)C1
Return: 87

Enquiry: Report inhibition at 1 µM, nothing else, for this compound: C/C(=C\n1c2c(c3ccccc31)CN(C)CC2)c1ccc(F)cc1
Return: 103

Enquiry: Report inhibition at 1 µM, nothing else, for this compound: CN1CCc2c(c3cc(Cl)ccc3n2C/C=C/c2ccncc2)C1
Return: 41

Enquiry: Report inhibition at 1 µM, nothing else, for this compound: CN1CCc2c(c3cccc(F)c3n2CC(C)(O)c2ccncc2)C1 (stereo not drawn)
Return: 26

Enquiry: Report inhibition at 1 µM, nothing else, for this compound: C/C(=C/n1c2c(c3cc(Cl)ccc31)CN(C)CC2)c1ccccc1Cl
Return: 101

Enquiry: Report inhibition at 1 µM, nothing else, for this compound: Cc1ccc2c(c1)c1c(n2CC#Cc2ccccn2)CCN(C)C1
Return: 18

Parameter requested: inhibition at 1 µM. Apply to each item below.
1. CN1CCc2c(c3cc(Cl)ccc3n2CC(O)c2cccnc2)C1 (stereo not drawn)
2. C/C(=C\n1c2c(c3ccc(Cl)cc31)CN(C)CC2)c1ccncc1
3. COc1ccc2c(c1)c1c(n2CC(C)(O)c2ccncc2)CCN(C)C1 (stereo not drawn)

Return:
1. 62
2. 102
3. 9
